B1: Syntaxin-binding protein 4, residues 493 to 538; numbered along this chain, Q6ZWJ1 (parent)
chain: LDMDCLPYGWEEAYTADGIKYFINHVTQTTSWIHPVMSVLNLSRSE

Variants of: B1
Experiment: abundance fitness (aPCA) (normalised: wild type 0, dead -1); higher = more abundant; growth selection in yeast, the domain comes from the species named
Details: Homo sapiens
The threshold is inclusive: abundance fitness of exactly -0.8 counts as Fulfilled; values below receive Not fulfilled.

Previously resolved entries follow.
>  <MUTANT_CODE>
H25R

>  <GROUP_LABEL>
Fulfilled

$$$$
>  <MUTANT_CODE>
A13N

>  <GROUP_LABEL>
Fulfilled

$$$$
>  <MUTANT_CODE>
D4K

>  <GROUP_LABEL>
Fulfilled

$$$$
>  <MUTANT_CODE>
K20A

>  <GROUP_LABEL>
Fulfilled

$$$$
>  <MUTANT_CODE>
Y21H

>  <GROUP_LABEL>
Not fulfilled

$$$$

query: Does the variant "H34W" have recorded abundance fitness that is -0.8 or more?
result: Not fulfilled

query: Does the variant "Y21V" have recorded abundance fitness that is -0.8 or more?
result: Not fulfilled

query: Does the variant "Y8T" have recorded abundance fitness that is -0.8 or more?
result: Fulfilled

query: Does the variant "K20I" have recorded abundance fitness that is -0.8 or more?
result: Not fulfilled

query: Does the variant "I33M" have recorded abundance fitness that is -0.8 or more?
result: Fulfilled

query: Does the variant "R44C" have recorded abundance fitness that is -0.8 or more?
result: Fulfilled

query: Does the variant "S38M" have recorded abundance fitness that is -0.8 or more?
result: Fulfilled

query: Does the variant "P7V" have recorded abundance fitness that is -0.8 or more?
result: Fulfilled

query: Does the variant "Q28L" have recorded abundance fitness that is -0.8 or more?
result: Not fulfilled

query: Does the variant "T15P" have recorded abundance fitness that is -0.8 or more?
result: Fulfilled

query: Does the variant "T30F" have recorded abundance fitness that is -0.8 or more?
result: Not fulfilled

query: Does the variant "Y21A" have recorded abundance fitness that is -0.8 or more?
result: Not fulfilled

query: Does the variant "Q28C" have recorded abundance fitness that is -0.8 or more?
result: Fulfilled

query: Does the variant "V26G" have recorded abundance fitness that is -0.8 or more?
result: Fulfilled

query: Does the variant "S31C" have recorded abundance fitness that is -0.8 or more?
result: Fulfilled

query: Does the variant "L42R" have recorded abundance fitness that is -0.8 or more?
result: Fulfilled

query: Does the variant "W32C" have recorded abundance fitness that is -0.8 or more?
result: Fulfilled

query: Does the variant "G9N" have recorded abundance fitness that is -0.8 or more?
result: Not fulfilled

query: Does the variant "R44H" have recorded abundance fitness that is -0.8 or more?
result: Fulfilled

query: Does the variant "N41F" have recorded abundance fitness that is -0.8 or more?
result: Not fulfilled

query: Does the variant "G18T" have recorded abundance fitness that is -0.8 or more?
result: Not fulfilled

query: Does the variant "S31F" have recorded abundance fitness that is -0.8 or more?
result: Fulfilled

query: Does the variant "W10C" have recorded abundance fitness that is -0.8 or more?
result: Not fulfilled

query: Does the variant "H25M" have recorded abundance fitness that is -0.8 or more?
result: Not fulfilled

query: Does the variant "Y8P" have recorded abundance fitness that is -0.8 or more?
result: Fulfilled
